Biological target: Fuc(a1-2)[GalNAc(a1-3)]Gal(b1-4)[Fuc(a1-3)]GlcNAc
Test: glycan array binding signal (z-score within array); higher = stronger binding
Details: glycan notation: IUPAC condensed, linker removed
The entries come from a sample that favours the strongest signals as a whole.
Observable: glycan array binding signal (z-score)
One number for each entry.

Could you tell me glycan array binding signal (z-score) for each of these binders? They are listed below.
1. DrGal3 (Danio rerio) (protein) MDLSDALDAPPQQNNQQAGGPVWPGQPANPVWPGQPANPTWPGQPNQPAWPGQPNQQWPGQPGQPTAPGWPGPAPQTGPYGAPGQAPQVLTVPLDFPLQNGAYNKMLITINGEVKPNAKQFTVNLRRGNDIAFHINPRFSEGGKPVIVRNSMIGNNWGREERELPSFPFVPGKPFEMKILITDTEYKVAVNKSHLLEFKHRVFELNQITGLSIYNDVTLSTVNVETLQ
2. S100A12 (Homo sapiens), P80511 (protein) MTKLEEHLEGIVNIFHQYSVRKGHFDTLSKGELKQLLTKELANTIKNIKDKAVIDEIFQGLDANQDEQVDFQEFISLVAIALKAAHYHTHKE

Key:
1: -0.206; 2: -0.154

Exercise: Output measured glycan array binding signal (z-score) for this item: Glycodelin A (Homo sapiens), P09466 (protein) MLCLLLTLGVALVCGVPAMDIPQTKQDLELPKLAGTWHSMAMATNNISLMATLKAPLRVHITSLLPTPEDNLEIVLHRWENNSCVEKKVLGEKTENPKKFKINYTVANEATLLDTDYDNFLFLCLQDTTTPIQSMMCQYLARVLVEDDEIMQGFIRAFRPLPRHLWYLLDLKQMEEPCRF
Key: -0.439

src = the supplement of paper PMC8728848
